Source: paper PMC4436074

# testedOn: His6-SUMO-Rgg3 (Streptococcus pyogenes)
# experimentalProtocol: fluorescence polarisation
pKd: −log10 of the molar value.
quantityKind: pKd

> print(dat)
                                     binder  quantitykind  recordedresult
1  DILIIVGG [SHP2-C8 (unlabeled synthetic peptide)]           pKd            6.66
